System: SNB-19
Test: NCI tumour cell line growth inhibition, 48 h
Calls of active or inactive are those of the source. No stated cut-off is given here; in the data, active = GI50 up to about 1.1 µM and inactive = higher.
I'd appreciate it if you could supply GI50 values for the items below.

Reference set, count: 6
# compound, GI50
data = [
    ("Cc1cccc2c1Oc1ccccc1C2NC(=O)c1ccc([N+](=O)[O-])cc1 (stereo unspecified)", "> 100 µM (inactive)"),
    ("COc1ccc(-c2oc3ccc(C)cc3c(=O)c2O)cc1", "44.4 µM (inactive)"),
    ("Nc1ncnc2c1ncn2C1OC(C(=O)OCCO)C(O)C1O (stereo unspecified)", "> 100 µM (inactive)"),
    ("CCOC(=O)c1cc(C(O)P2(=O)N(CC(C)(C)C)[C@@H]3CCCC[C@H]3N2CC(C)(C)C)cn1C(=O)OC(C)(C)C (stereo partly specified)", "19.5 µM (inactive)"),
    ("O=C1/C(=C\\c2ccc(Cl)cc2)N=C(c2ccccc2)N1n1c(=O)cn[nH]c1=S", "54.3 µM (inactive)"),
    ("CCNC(=O)CCN(C(=O)O)S(=O)(=O)c1ccc(NC(=O)c2ccccc2)cc1", "> 100 µM (inactive)"),
]

Provide reported GI50 for each item, in the same order as listed.
1. CSc1[nH]cnc1C(N)=S
2. Cc1nc(O)nc(N/N=C/c2ccc(Cl)c(Cl)c2)c1C(=O)Nc1ccc(Cl)c(Cl)c1
3. Cc1cc(S(=O)(=O)Nc2nnc3ccccn23)c(S)cc1Cl
4. COC(=O)c1cc(NC(=O)c2cc(NC(=O)Cc3c[nH]c4ccccc34)cn2C)cn1C

Marked response:
1. > 100 µM (inactive)
2. 9.59 µM (inactive)
3. > 100 µM (inactive)
4. 21.8 µM (inactive)
